Tested on: A498
Experiment: Anticancer activity against human A498 cells assessed as cell growth at 20 ug/mL by sulforhodamine B assay
Assay type: functional
Settings: read-out: Activity
Consider the following compounds and their measured growth at 20 µg/mL readings.
Express your answer in %, writing the number without its unit.

Request: // growth at 20 µg/mL lookup, key: O=[N+]([O-])c1ccc(C2CC(c3ccc4[nH]c5c(c4c3)CCCC5)=NN2)cc1 (stereo not given)
Result: 100

Request: Data request, read-out growth at 20 µg/mL, for Oc1ccccc1C1CC(c2ccc3[nH]c4c(c3c2)CCCC4)=NN1 (stereo not given)
Result: 99.5

Request: Could you tell me which growth at 20 µg/mL is on file for CC1CC(c2ccc3[nH]c4c(c3c2)CCCC4)=NN1 (stereo not given) ?
Result: 82

Request: I am curious: what growth at 20 µg/mL value has been reported for C(=C\C1CC(c2ccc3[nH]c4c(c3c2)CCCC4)=NN1)/c1ccccc1 (stereo not given) ?
Result: 99.7

Request: Bench note: what growth at 20 µg/mL did Cc1ccc(C2CC(c3ccc4[nH]c5c(c4c3)CCCC5)=NN2)cc1 (stereo not given) show?
Result: 99.2
